pIC50: −log10 of the molar value.
These molecules were tested on Tyrosine-protein kinase SYK [355-635] (Homo sapiens, UniProt P43405); pIC50 is the recorded read-out.
Measurement Kind: pIC50

In the examples that follow, each entry is paired with its recorded pIC50.
(Q) Suppose we examine the molecule CN1C(=O)c2ccc(Nc3nccc(Nc4cccc5[nH]ncc45)n3)cc2C1=O [GTC000170A] ; what pIC50 value has been reported?
(A) 6.24

(Q) What about this molecule? CCN(c1nc(Nc2ccc3nn[nH]c3c2)ncc1F)c1cccc2[nH]ncc12 [GTC000267A]
(A) 8.20

a: O=C(Cc1ccc(Nc2nccc(Nc3cccc4[nH]ncc34)n2)cc1)Nc1cccnc1 [GTC000219A]
b: CCN(c1nc(Nc2ccc3cnn(C)c3c2)ncc1F)c1cccc2[nH]ncc12 [GTC000255A]
(Q) Two entries are listed, a and b . Which one carries the higher pIC50? When you have decided, please share the label of that item.
(A) b
(b: 8.33, a: 6.27)
